Values compiled from paper PMC6409085.

- tgt: SfurOBP2 (Sogatella furcifera, UniProt V5T759)
- Sequence (V5T759 entry or part of it): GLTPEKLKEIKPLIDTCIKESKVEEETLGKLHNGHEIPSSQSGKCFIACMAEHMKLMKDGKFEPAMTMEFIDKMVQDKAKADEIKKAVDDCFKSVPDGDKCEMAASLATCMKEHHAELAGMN
- method description: biochemical
- Assay type: binding
- particulars: ligand concentration 12 (unit not given), replicate column 3 of 3
measured endpoint: Fluorescence competitive binding assay, OBP2 (raw fluorescence reading)
Give your answer as a number; write no unit.

Task: Quote Fluorescence competitive binding assay, OBP2 (raw fluorescence reading) reported for CCCCCCCCCCCCCCCC please.
Output: 13112

Task: Quote Fluorescence competitive binding assay, OBP2 (raw fluorescence reading) reported for CCCCCCCCCCCCC=O please.
Output: 16491

Task: Quote Fluorescence competitive binding assay, OBP2 (raw fluorescence reading) reported for CCCCCC=O please.
Output: 15598

Task: Quote Fluorescence competitive binding assay, OBP2 (raw fluorescence reading) reported for CC1=CC[C@@H](C(C)(C)O)CC1 please.
Output: 15705

* * *

Answer each item with its documented Fluorescence competitive binding assay, OBP2 (raw fluorescence reading).
- tgt: SfurOBP2 (Sogatella furcifera, UniProt V5T759)
- method description: biochemical
- Format: binding
- particulars: ligand concentration 14 (unit not given), replicate column 1 of 3
Give your answer as a number; write no unit.

Task: Quote Fluorescence competitive binding assay, OBP2 (raw fluorescence reading) reported for COC(=O)c1ccccc1 [benzoic acid methylester] please.
Output: 15808

Task: Quote Fluorescence competitive binding assay, OBP2 (raw fluorescence reading) reported for CCCCCCCCCCCCCCCCCCC [n-nonadecane] please.
Output: 22713

Task: Quote Fluorescence competitive binding assay, OBP2 (raw fluorescence reading) reported for CC(C)COC(=O)CCCCC(=O)OCC(C)C [DA(diisobutyl adipate)] please.
Output: 14108

Task: Quote Fluorescence competitive binding assay, OBP2 (raw fluorescence reading) reported for CC1=CC[C@@H](C(C)(C)O)CC1 [α-terpineol] please.
Output: 15282

Task: Quote Fluorescence competitive binding assay, OBP2 (raw fluorescence reading) reported for CCCCCCCC=O [octanal] please.
Output: 17500

Task: Quote Fluorescence competitive binding assay, OBP2 (raw fluorescence reading) reported for c1ccc2ccccc2c1 [naphthalene] please.
Output: 17572

Task: Quote Fluorescence competitive binding assay, OBP2 (raw fluorescence reading) reported for Cc1ccc(C(C)C)cc1 [4-isopropyltoluene] please.
Output: 14333

* * *

Answer each item with its documented Fluorescence competitive binding assay, OBP2 (raw fluorescence reading).
- tgt: SfurOBP2 (Sogatella furcifera)
- method description: biochemical
- Format: binding
- particulars: ligand concentration 16 (unit not given), replicate column 1 of 3
Give your answer as a number; write no unit.

Task: Quote Fluorescence competitive binding assay, OBP2 (raw fluorescence reading) reported for CCCCCC=O please.
Output: 16559

Task: Quote Fluorescence competitive binding assay, OBP2 (raw fluorescence reading) reported for CCCCCCCC please.
Output: 11757

Task: Quote Fluorescence competitive binding assay, OBP2 (raw fluorescence reading) reported for CCCCCC(C)=O please.
Output: 12777

Task: Quote Fluorescence competitive binding assay, OBP2 (raw fluorescence reading) reported for CCC/C=C/CO [(E)-2-hexenol] please.
Output: 12677

Task: Quote Fluorescence competitive binding assay, OBP2 (raw fluorescence reading) reported for c1ccc2ccccc2c1 please.
Output: 16408

Task: Quote Fluorescence competitive binding assay, OBP2 (raw fluorescence reading) reported for CCCCCCCCC=O please.
Output: 15898

* * *

- tgt: SfurOBP2 (Sogatella furcifera)
- method description: biochemical
- Format: binding
- particulars: ligand concentration 6 (unit not given), replicate column 1 of 3
Answer each item with its documented Fluorescence competitive binding assay, OBP2 (raw fluorescence reading).
Give your answer as a number; write no unit.

Task: Using SfurOBP2 (Sogatella furcifera) as the test system, report measured Fluorescence competitive binding assay, OBP2 (raw fluorescence reading) of COC(=O)c1ccccc1 [benzoic acid methylester] .
Output: 19982

Task: Using SfurOBP2 (Sogatella furcifera) as the test system, report measured Fluorescence competitive binding assay, OBP2 (raw fluorescence reading) of CCCCCCCCCCCCO [lauryl alcohol] .
Output: 18208

Task: Using SfurOBP2 (Sogatella furcifera) as the test system, report measured Fluorescence competitive binding assay, OBP2 (raw fluorescence reading) of CCCCCCCCCCCCCCCC(=O)OC [MH(methyl hexadecanoate)] .
Output: 51385

Task: Using SfurOBP2 (Sogatella furcifera) as the test system, report measured Fluorescence competitive binding assay, OBP2 (raw fluorescence reading) of CCCCCCCCCCC [n-hendecane] .
Output: 14480

Task: Using SfurOBP2 (Sogatella furcifera) as the test system, report measured Fluorescence competitive binding assay, OBP2 (raw fluorescence reading) of CCCCCCCC [n-octane] .
Output: 16307

Task: Using SfurOBP2 (Sogatella furcifera) as the test system, report measured Fluorescence competitive binding assay, OBP2 (raw fluorescence reading) of C=C/C(C)=C/C/C=C(\C)CCC=C(C)C [α-farnesene] .
Output: 15945

Task: Using SfurOBP2 (Sogatella furcifera) as the test system, report measured Fluorescence competitive binding assay, OBP2 (raw fluorescence reading) of CC(C)COC(=O)CCCCC(=O)OCC(C)C [DA(diisobutyl adipate)] .
Output: 16096

Task: Using SfurOBP2 (Sogatella furcifera) as the test system, report measured Fluorescence competitive binding assay, OBP2 (raw fluorescence reading) of CCCCCCCCCCCCCCCCCC [n-octadecane] .
Output: 22620

Task: Using SfurOBP2 (Sogatella furcifera) as the test system, report measured Fluorescence competitive binding assay, OBP2 (raw fluorescence reading) of CCCCCCCC=O [octanal] .
Output: 19862

Task: Using SfurOBP2 (Sogatella furcifera) as the test system, report measured Fluorescence competitive binding assay, OBP2 (raw fluorescence reading) of Cc1cc(C(C)(C)C)c(O)c(C(C)(C)C)c1 [BHT(2,6-di-tert-butyl-4-methylphenol)] .
Output: 15662

Task: Using SfurOBP2 (Sogatella furcifera) as the test system, report measured Fluorescence competitive binding assay, OBP2 (raw fluorescence reading) of CC(=O)/C=C/C1=C(C)CCCC1(C)C [β-Ionone] .
Output: 19895

Task: Using SfurOBP2 (Sogatella furcifera) as the test system, report measured Fluorescence competitive binding assay, OBP2 (raw fluorescence reading) of OC1CCCCC1 [cyclohexanol] .
Output: 17760

Task: Using SfurOBP2 (Sogatella furcifera) as the test system, report measured Fluorescence competitive binding assay, OBP2 (raw fluorescence reading) of CCCCCCCCC=O [nonanal] .
Output: 22973

Task: Using SfurOBP2 (Sogatella furcifera) as the test system, report measured Fluorescence competitive binding assay, OBP2 (raw fluorescence reading) of C=CC(C)(O)CCC=C(C)C (stereo not drawn) [linalool] .
Output: 20143

Task: Using SfurOBP2 (Sogatella furcifera) as the test system, report measured Fluorescence competitive binding assay, OBP2 (raw fluorescence reading) of C/C(=C\CO)CCC[C@H](C)CCC[C@H](C)CCCC(C)C [plant alcohol] .
Output: 19539

Task: Using SfurOBP2 (Sogatella furcifera) as the test system, report measured Fluorescence competitive binding assay, OBP2 (raw fluorescence reading) of CCCCCC=O [caproaldehyde] .
Output: 20477

Task: Using SfurOBP2 (Sogatella furcifera) as the test system, report measured Fluorescence competitive binding assay, OBP2 (raw fluorescence reading) of O=Cc1ccccc1 [benzaldehyde] .
Output: 13559

Task: Using SfurOBP2 (Sogatella furcifera) as the test system, report measured Fluorescence competitive binding assay, OBP2 (raw fluorescence reading) of CCCCCCCCCCOCCCCCCCCCC [didecyl ether] .
Output: 34688

Task: Using SfurOBP2 (Sogatella furcifera) as the test system, report measured Fluorescence competitive binding assay, OBP2 (raw fluorescence reading) of C=C(C)C1CC=C(C)CC1 (single isomer, unassigned; (+)) [(+)-limonene] .
Output: 18726

Task: Using SfurOBP2 (Sogatella furcifera) as the test system, report measured Fluorescence competitive binding assay, OBP2 (raw fluorescence reading) of O=C(c1ccccc1)c1ccccc1 [benzophenone] .
Output: 16160

Task: Using SfurOBP2 (Sogatella furcifera) as the test system, report measured Fluorescence competitive binding assay, OBP2 (raw fluorescence reading) of CCCCCCCCCCCCC=O [tridecanal] .
Output: 17180

* * *

- tgt: SfurOBP11 (Sogatella furcifera)
- Sequence (V5T6E3 entry or part of it): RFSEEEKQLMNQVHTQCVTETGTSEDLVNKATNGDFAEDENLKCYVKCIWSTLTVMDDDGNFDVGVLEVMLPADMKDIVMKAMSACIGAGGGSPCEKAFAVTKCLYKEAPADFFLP
- method description: biochemical
- Assay type: binding
- particulars: ligand concentration 14, replicate 2
- Method: Thirty-six rice odorants ([He et al., 2014]; [Wang et al., 2017]) and 1-N-phenyl-naphthylamine (1-NPN) were purchased from Sigma-Aldrich (St Louis, MO, USA). […] Fluorescence competitive binding assays were performed on Tecan Spark 10M (Tecan Group Ltd., Männedorf, Switzerland) with the F96 Black ELIAS Plate (Sangon) ([Khuhro et al., 2017]; [Liu et al., 2017]). The solutions were excited at 337 nm and emission spectra were recorded between 390 and 490 nm. […]
Answer each item with its documented Fluorescence intensity, fluorescence competitive binding assay, OBP11.
Give your answer as a number; write no unit.

Task: Quote Fluorescence intensity, fluorescence competitive binding assay, OBP11 reported for C=CC(C)(O)CCC=C(C)C (stereo not drawn) please.
Output: 28913

Task: Quote Fluorescence intensity, fluorescence competitive binding assay, OBP11 reported for CCCCCCCC=O please.
Output: 26978

Task: Quote Fluorescence intensity, fluorescence competitive binding assay, OBP11 reported for C[C@@H]1CC[C@H]2C(C)(C)[C@H]3C[C@@]12CC[C@@]3(C)O please.
Output: 35392

Task: Quote Fluorescence intensity, fluorescence competitive binding assay, OBP11 reported for CC(=O)c1ccccc1 please.
Output: 21821

Task: Quote Fluorescence intensity, fluorescence competitive binding assay, OBP11 reported for C/C(=C\CO)CCC[C@H](C)CCC[C@H](C)CCCC(C)C please.
Output: 21377

Task: Quote Fluorescence intensity, fluorescence competitive binding assay, OBP11 reported for O=Cc1ccccc1 please.
Output: 20823

Task: Quote Fluorescence intensity, fluorescence competitive binding assay, OBP11 reported for CCCCCCCCCCOCCCCCCCCCC please.
Output: 70642

Task: Quote Fluorescence intensity, fluorescence competitive binding assay, OBP11 reported for CC(=O)/C=C/C1=C(C)CCCC1(C)C please.
Output: 18839

Task: Quote Fluorescence intensity, fluorescence competitive binding assay, OBP11 reported for CCCCCCCCCCCCCCCC please.
Output: 22333
